Experiment: basal 3T3-L1 adipocyte mitochondrial potential changes, profiling panel, cell-based, JC-1 fluorescence, 3T3-L1 adipocytes, 24 h, 100 nL compound (AID 1168); note: test concentration not given here
Details: JC-1 mitochondrial fluorescence, higher = more signal, called active from +8 up or from −8 down
Measurement kind: z-score
In your answer, state the number alone without any accompanying words.

Molecule: COCCOC(=O)N1C(=O)[C@@]2(c3cc(C#CC4=CCCCC4)ccc31)[C@H](C(=O)Nc1nc3ccccc3s1)[C@H]1C(=O)O[C@H](c3ccccc3)[C@H](c3ccccc3)N1[C@@H]2c1ccccc1OCCO
z-score: -0.2
//
Molecule: O=C1O[C@H](c2ccccc2)[C@H](c2ccccc2)N2[C@H]1[C@@H](C(=O)Nc1nc3ccccc3s1)[C@]1(C(=O)Nc3ccc(C#CCCO)cc31)[C@H]2c1ccc(OCCO)cc1
z-score: 0.491

## Task What value of z-score has been recorded for this entry: "C#CCNC(=O)[C@H](Cc1ccccc1)NC(=O)CCC(=O)O"
## Result -0.536

## Task What value of z-score has been recorded for this entry: CN1C(=O)C2C=CC(C(O)C3=C[C@H]4C[C@@H](C3)C4(C)C)N(Nc3ccccc3)C2C1=O (some centres not stated)
## Result -0.209

## Task What value of z-score has been recorded for this entry: "COC(=O)[C@@]1(Cc2ccc(F)cc2)[C@H]2c3cc(C(=O)N4CCCC4)n(Cc4ccc(C)o4)c3C[C@H]2CN1C(=O)c1ccccc1"
## Result 0.096

## Task What value of z-score has been recorded for this entry: CCOc1cc(C(O)C2C=CC3C(=O)N(c4ccccc4)C(=O)C3N2Nc2ccccc2)ccc1O (configuration not stated)
## Result -2.33

## Task What value of z-score has been recorded for this entry: O=C1OCCC/C=C\[C@H]2OC34C=CCN(c5ccc6ccccc6c5)C(=O)[C@H]3N(CCCCCCO)C(=O)[C@@H]4C12 (some centres not stated)
## Result 0.4

* * *

Experiment: fission yeast growth modulation, primary screen, strain 972, OD600, 24 h, no modulator (AID 1090);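 note: basal condition with compound alone and no growth modifier present; test concentration not given here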
Conditions: S. pombe 972 growth, called active from +8 up or from −8 down
Calls of active or inactive are those of the source.
Give your call using only these classes: class 1 = active, class 0 = inactive

Solved entries (count: 3):
Compound: O=C(c1ccccc1)N1Cc2ccccc2[C@@H]2OC(c3ccc(OCCCO)cc3)=N[C@]2(Cc2ccccc2)C1=O
Label value: class 0

Compound: O=C1C2C=CC(C(O)C3CCCCC3)N(Nc3ccc([N+](=O)[O-])cc3)C2C(=O)N1c1ccccc1 (stereo not drawn)
Label value: class 0

Compound: [N-]=[N+]=NCc1ccccc1[C@@H]1OC(c2ccc(OCCCO)cc2)=N[C@]1(CCS(=O)(=O)c1ccccc1)C(=O)NCCN1CCOCC1
Label value: class 0

## Task // return assay outcome for "COc1cc2c(cc1OC)CN(C(=O)[C@H]1[C@@H]3C(=O)O[C@@H](c4ccccc4)[C@@H](c4ccccc4)N3[C@@H](c3ccc(O)cc3)[C@]13C(=O)Nc1ccc(C#CC4=CCCCC4)cc13)CC2"
## Result class 0

## Task // return assay outcome for "COC(=O)C(CC#Cc1ccc2c(c1)[C@]1(C(=O)N2)[C@H](c2ccc(O)cc2)N2[C@H](c3ccccc3)[C@H](c3ccccc3)OC(=O)[C@H]2[C@@H]1C(=O)Nc1nc2ccccc2s1)C(=O)OC"
## Result class 0

## Task // return assay outcome for "C=CCOC(=O)[C@H]1[C@@H]2C(=O)O[C@@H](c3ccccc3)[C@@H](c3ccccc3)N2[C@@H](c2ccc(OCCOC(=O)[C@@H]3C[C@@H]4C(=O)N[C@@H](CCCCN(C)C)C(=O)N4[C@@H]3c3ccc(O)cc3)cc2)[C@]12C(=O)Nc1ccc(I)cc12"
## Result class 0

* * *

Experiment: small-molecule binders of probe aNOTCH2, primary screen, biochemical, small-molecule microarray, 635/667 nm fluorescence (AID 1121);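 note: score merges feature fluorescence read at 667 nm with its signal to noise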
Conditions: higher = more signal
Measurement kind: composite z-score
In your answer, state the number alone without any accompanying words.

Molecule: C=CCNC(=O)[C@H]1[C@@H]2C(=O)O[C@@H](c3ccccc3)[C@@H](c3ccccc3)N2[C@@H](c2ccc(O)cc2)[C@]12C(=O)N(C(=O)OCCOC)c1ccc(C#CCNC(N)=O)cc12
Observed: 0.0313
//
Molecule: C=CC[C@]12N=C(c3ccc(OCCCO)cc3)O[C@H]1c1ccccc1N(Cc1ccccc1)C2=O
Observed: -0.078
//
Molecule: C=C/C=C/[C@H]1C(=C)CN([C@@H](Cc2ccccc2)C(=O)OC)[C@@H]1[C@H](O)Cc1ccccc1
Observed: -0.195
//
Molecule: COCC(=C=CC[C@@H](O)c1ccccc1OCCO)C[C@@H](O)c1cc(Cl)cc(Cl)c1O
Observed: -0.14
//
Molecule: O=C(NCC(F)(F)F)[C@@H]1c2ccccc2C(=O)N(C2CCCCC2)[C@H]1c1ccc(CO)cc1
Observed: -0.0942
//
Molecule: CN1C(=O)[C@]2(Cc3ccccc3)N=C(c3ccc(OCCCO)cc3)O[C@@H]2c2ccccc21
Observed: -0.0734
//
Molecule: COC(=O)[C@@]1(Cc2ccc(F)cc2)[C@H]2c3cc(C(=O)N4CCCC4)n(Cc4cc(C)n(C)n4)c3C[C@H]2CN1C(=O)c1ccccc1
Observed: 0.385

Consider the record given below.
## Task What value of composite z-score has been recorded for this entry: CN1C(=O)C2C=CC(C(O)c3ccc(-c4ccccc4)s3)N(N(c3ccccc3)c3ccccc3)C2C1=O (stereo not drawn)
## Result -0.134

* * *

Target: Torsin-1A (Homo sapiens) (UniProt O14656)
Sequence (O14656 whole entry, looked up): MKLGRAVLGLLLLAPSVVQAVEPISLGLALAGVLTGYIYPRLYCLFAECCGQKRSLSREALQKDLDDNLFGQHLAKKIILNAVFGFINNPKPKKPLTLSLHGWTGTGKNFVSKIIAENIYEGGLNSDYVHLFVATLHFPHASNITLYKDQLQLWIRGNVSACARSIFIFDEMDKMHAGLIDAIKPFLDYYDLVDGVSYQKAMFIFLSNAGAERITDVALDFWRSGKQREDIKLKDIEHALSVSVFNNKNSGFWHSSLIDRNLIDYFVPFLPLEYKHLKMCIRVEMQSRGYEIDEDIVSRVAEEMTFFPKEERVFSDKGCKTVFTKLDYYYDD
Assay: small-molecule binders of mutant TOR1A in lysate, primary screen, cell lysate, small-molecule microarray, COS7 lysate, 635/667 nm fluorescence (AID 1150);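 note: score pools 667 nm emission and signal to noise measuring lysate protein binding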
Conditions: COS7 hTOR1A mutant lysate, 635 nm fluorescence, higher = more signal
A collection of compounds and their measured composite z-score
In your answer, state the number alone without any accompanying words.

Compound: CC1CC/C=C\[C@H]2OC34C=CCN(c5ccc(Cl)cc5)C(=O)[C@H]3N(CCO)C(=O)[C@]4(C)C2C(=O)O1 (stereo not given in full)
Study system: Torsin-1A (Homo sapiens) (UniProt O14656)
composite z-score: -1.01
//
Compound: CC(C)C[C@@H]1NC(=O)[C@H]2C[C@@H](C(=O)NCCCCCCN)[C@@H](c3ccc(O)cc3)N2C1=O
Study system: Torsin-1A (Homo sapiens) (UniProt O14656)
composite z-score: 0.339
//
Compound: O=C1NC(=O)C2C1C=CC(C(O)c1ccccc1)N2Nc1ccc(Cl)cc1Cl (stereo not given)
Study system: Torsin-1A (Homo sapiens) (UniProt O14656)
composite z-score: 1.4
//
Compound: C=CCN(Cc1ccccc1)C(=O)C(c1cccs1)N(CCOCCO)C(=O)/C=C\C(=O)O (stereo not given)
Study system: Torsin-1A (Homo sapiens) (UniProt O14656)
composite z-score: -3.08
//
Compound: CCN(CC)c1ccc(N2CC=CC34O[C@@H]5/C=C\CCCOC(=O)C5[C@H]3C(=O)N(CCO)[C@@H]4C2=O)cc1 (stereo not given in full)
Study system: Torsin-1A (Homo sapiens) (UniProt O14656)
composite z-score: -0.705

## Task What value of composite z-score has been recorded for this entry: "C[C@@]1([C@@H](NC(=O)c2ccccc2)c2ccc(-c3ccccc3)cc2)C[C@H]1C1CCCCC1"
## Result -0.0293

## Task What value of composite z-score has been recorded for this entry: "COc1cc2c(cc1O)C=[N+](Cc1cccc(OC(F)(F)F)c1)CC2"
## Result 0.284

## Task What value of composite z-score has been recorded for this entry: "COC(=O)[C@@]1(Cc2ccccc2)[C@H]2c3cc(C(=O)N4CCCC4)n(Cc4nc5ccccc5[nH]4)c3C[C@H]2CN1C(=O)c1ccccc1"
## Result 1.24

## Task What value of composite z-score has been recorded for this entry: CN1C(=O)C2C=CC(C(O)C3=C[C@H]4C[C@@H](C3)C4(C)C)N(Nc3ccccc3)C2C1=O (stereo not given in full)
## Result 0.276

## Task What value of composite z-score has been recorded for this entry: "Cc1ccc(S[C@]2(C(=O)NC3CC3)CC(=O)N(C3Cc4ccccc4C3)[C@@H]2c2ccc(CO)cc2)cc1"
## Result 0.23

## Task What value of composite z-score has been recorded for this entry: CN1C(=O)C2C=CC(C(O)c3ccccc3)N(Nc3ccccc3)C2C1=O (stereo not given)
## Result 0.254

## Task What value of composite z-score has been recorded for this entry: "O=C1O[C@H](c2ccccc2)[C@H](c2ccccc2)N2[C@H]1[C@@H](C(=O)Nc1nc3ccccc3s1)[C@]1(C(=O)Nc3ccc(C#CC4(O)CCCCCC4)cc31)[C@H]2c1ccc(OCCO)cc1"
## Result 1.01

## Task What value of composite z-score has been recorded for this entry: "COCCOC(=O)N1C(=O)[C@@]2(c3ccccc31)[C@H](c1ccc(O)cc1)N1[C@H](c3ccccc3)[C@H](c3ccccc3)OC(=O)[C@H]1[C@@H]2C(=O)NC[C@H](O)c1ccccc1"
## Result 0.805

## Task What value of composite z-score has been recorded for this entry: "O=C1[C@H]2C=C(Br)[C@H](C[C@@H]2OCCCCO)[C@@]12CO2"
## Result 0.53

## Task What value of composite z-score has been recorded for this entry: CN1C(=O)C2C=CC(C(O)Cc3ccccc3)N(Nc3ccccc3)C2C1=O (stereo not given)
## Result 0.444

## Task What value of composite z-score has been recorded for this entry: CC(C)(C)OC(=O)CC[C@]1(C(=O)NCC(O)CO)COC(c2ccc(OCCCO)cc2)=N1 (stereo not given in full)
## Result 2.65
